Parameter: TGI. Scope: all listed entries.
# Tested on: TK-10 renal
# Protocol Summary: NCI tumour cell line growth inhibition, 48 h
Measured Property: TGI (µM)

- Compound: "Nc1ccc(-c2nc3ccc(F)cc3s2)cc1"
  Measured Property: "TGI"
  Value Comparator: "="
  Experimental Result: 78.8
- Compound: "Cc1cc(C)nc(NS(=O)(=O)c2ccc(NC(=O)c3cccn4c(=O)c5ccccc5nc34)cc2)n1"
  Measured Property: "TGI"
  Value Comparator: ">"
  Experimental Result: 100
- Compound: "N.N.N.N.N.O=S(=O)([O-])C(F)(F)F.O=S(=O)([O-])C(F)(F)F.[Os+8]"
  Measured Property: "TGI"
  Value Comparator: "="
  Experimental Result: 95.4
- Compound: "Oc1ccc(Cl)cc1C1=N/C(=N\\C/N=C2\\N=C(c3cc(Cl)ccc3O)CC(c3ccccc3)N2)NC(c2ccccc2)C1 (centres undefined)"
  Measured Property: "TGI"
  Value Comparator: ">"
  Experimental Result: 100
- Compound: "O=c1[nH]cnc2sc(=S)c3c(c12)CCC3"
  Measured Property: "TGI"
  Value Comparator: "="
  Experimental Result: 61.9
- Compound: "COCCOCOC(C)(C)[C@H](CCOC(C)=O)O[Si](c1ccccc1)(c1ccccc1)C(C)(C)C"
  Measured Property: "TGI"
  Value Comparator: "="
  Experimental Result: 87.1
- Compound: "NCCC(=O)NC(Cc1cnc[nH]1)C(=O)O (centres undefined)"
  Measured Property: "TGI"
  Value Comparator: ">"
  Experimental Result: 100
- Compound: "COC(=O)C#CCC1CCCC1C1SCCS1 (centres undefined)"
  Measured Property: "TGI"
  Value Comparator: ">"
  Experimental Result: 100
- Compound: "O=C1c2ccccc2-c2nc(-c3ccccc3)cc3c2c1nc1ccccc13"
  Measured Property: "TGI"
  Value Comparator: "="
  Experimental Result: 42.5
- Compound: "CCCCc1c2c(nc3c1CCc1cc4cc5c(nc4nc1-3)-c1nc3c(c(CCCC)c1CC5)CCC/C3=C\\c1ccccc1)/C(=C/c1ccccc1)CCC2"
  Measured Property: "TGI"
  Value Comparator: ">"
  Experimental Result: 100
- Compound: "COc1ccc2c(c1)C(=O)c1c-2c(N2CCNCC2)nc2ccccc12"
  Measured Property: "TGI"
  Value Comparator: "="
  Experimental Result: 23.6
- Compound: "Cc1ccc(OCC2OC(n3cnc4c(Cl)ncnc43)CC2Oc2ccc(C)cc2)cc1 (centres undefined)"
  Measured Property: "TGI"
  Value Comparator: ">"
  Experimental Result: 100
- Compound: "Cc1nc2c(sc(=S)n2-c2ccccc2)c2nc3ccccc3n12"
  Measured Property: "TGI"
  Value Comparator: ">"
  Experimental Result: 100
- Compound: "C#C[C@H]1CCCCCC1O (some centres undefined)"
  Measured Property: "TGI"
  Value Comparator: ">"
  Experimental Result: 100

Entry source: PubChem BioAssay (NCI)
